// provenance: patent US20150037348A1

Biological target: T1, human IL-12 (human, UniProt P29459 23-219; P29460 23-328)
T1 construct: recombinant human IL-12 heterodimer (p35/p40, disulfide-linked); also called hIL-12; rhIL-12
T1 sequence (looked up) 1: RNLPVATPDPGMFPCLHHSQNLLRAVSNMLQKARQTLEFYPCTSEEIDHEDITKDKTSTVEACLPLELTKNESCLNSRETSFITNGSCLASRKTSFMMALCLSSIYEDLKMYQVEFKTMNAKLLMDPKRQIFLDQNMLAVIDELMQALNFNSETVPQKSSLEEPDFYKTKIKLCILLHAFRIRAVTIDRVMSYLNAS
T1 sequence (looked up) 2: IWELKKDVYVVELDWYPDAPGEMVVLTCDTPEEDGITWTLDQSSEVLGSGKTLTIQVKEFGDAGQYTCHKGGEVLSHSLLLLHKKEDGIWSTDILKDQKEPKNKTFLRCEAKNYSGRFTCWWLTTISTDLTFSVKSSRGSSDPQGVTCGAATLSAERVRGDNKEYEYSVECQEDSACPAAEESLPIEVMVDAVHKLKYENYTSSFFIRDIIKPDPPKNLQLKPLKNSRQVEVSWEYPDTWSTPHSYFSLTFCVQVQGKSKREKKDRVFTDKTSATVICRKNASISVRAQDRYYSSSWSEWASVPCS
Test: SPR (BIAcore), IL-12 chip
measure.name: koff (s⁻¹)
The figure you give is taken to be in s⁻¹; do not add the unit.

Please review the following examples before continuing.
[Q] Look up koff of 177-H10 (scFv, V domains shown, scFv) VH: QVQLVQSGGGVVQPGRSLRLSCAASGFTFSSYGMHWVRQAPGKGLEWVAFIRYDGSNKYYADSVKGRFTISRDNSKNTLYLQMKSLRAEDTAVYYCKTHGSHDNWGQGTMVTVSS VL: SYVLTQPPSVSGTPGQRVTISCSGGRSNIGSNTVKWYQQLPGTAPKLLIYGNDQRPSGVPDRFSGSKSGTSASLAITGVQAEDEADYYCQSYDRGTHPTMYFGTGTKVTVL and report it.
[A] 0.00344

[Q] Look up koff of 177-C6 (scFv, V domains shown, scFv) VH: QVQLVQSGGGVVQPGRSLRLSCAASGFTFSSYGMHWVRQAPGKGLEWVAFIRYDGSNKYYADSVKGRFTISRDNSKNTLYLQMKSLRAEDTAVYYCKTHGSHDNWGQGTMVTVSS VL: SYVLTQPPSVSGTPGQRVTISCSGGRSNIGSNTVKWYQQLPGTAPKLLIYGNDQRPSGVPDRFSGSKSGTSASLAITGVQAEDEADYYCQSYDRGTHPVPAFGTGTKVTVL and report it.
[A] 0.000794

The record that follows has no koff shown yet.
[Q] Look up koff of 136-15 germline (scFv, V domains shown) VH: QVQLVESGGGVVQPGRSLRLSCAASGFTFSSYGMHWVRQAPGKGLEWVAFIRYDGSNKYYADSVKGRFTISRDNSKNTLYLQMNSLRAEDTAVYYCKTHGSHDNWGQGTMVTVSS VL: QSVLTQPPSVSGAPGQRVTISCSGSRSNIGSNTVKWYQQLPGTAPKLLIYGNDQRPSGVPDRFSGSKSGTSASLAITGLQAEDEADYYCQTYDKGFTGSSVFGTGTKVTVL and report it.
[A] 0.00046
